biological target: mouse proMMP9 (mouse, UniProt P41245 20-730); assay: cell-based or functional assay
Sequence (P41245 20-730): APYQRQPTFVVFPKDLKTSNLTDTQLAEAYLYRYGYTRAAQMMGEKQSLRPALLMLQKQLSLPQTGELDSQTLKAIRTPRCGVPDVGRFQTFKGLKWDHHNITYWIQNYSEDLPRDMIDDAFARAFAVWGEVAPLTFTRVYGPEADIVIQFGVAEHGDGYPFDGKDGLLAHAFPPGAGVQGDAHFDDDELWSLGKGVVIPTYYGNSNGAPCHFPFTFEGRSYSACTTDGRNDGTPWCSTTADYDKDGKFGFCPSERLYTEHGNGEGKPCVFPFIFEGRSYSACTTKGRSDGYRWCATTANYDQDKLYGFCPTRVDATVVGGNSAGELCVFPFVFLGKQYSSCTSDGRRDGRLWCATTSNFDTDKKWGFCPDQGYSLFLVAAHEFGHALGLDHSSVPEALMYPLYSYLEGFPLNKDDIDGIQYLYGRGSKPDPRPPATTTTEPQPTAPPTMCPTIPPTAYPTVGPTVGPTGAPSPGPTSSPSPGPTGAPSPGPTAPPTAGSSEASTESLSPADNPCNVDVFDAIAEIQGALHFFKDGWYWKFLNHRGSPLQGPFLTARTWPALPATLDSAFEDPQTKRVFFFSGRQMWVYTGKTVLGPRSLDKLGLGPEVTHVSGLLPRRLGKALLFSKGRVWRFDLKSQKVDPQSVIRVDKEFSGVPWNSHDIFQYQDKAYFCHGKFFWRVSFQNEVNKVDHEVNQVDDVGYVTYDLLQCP
ASSAY_ENDPOINT: IC50 (nM), MMP3/MMP9 gelatin assay

Recorded IC50 (nM), MMP3/MMP9 gelatin assay of F20-VH-GL1-V1-V9-V14/B03-VL-GL1c (antibody, human IgG4 S228P, V domains shown) VH: EVQLVESGGGLVQPGRSLRLSCAASGFTFNDYPMHWVRQAPGKGLEWVSGISSQSGSVGYAESVKGRFTISRDNAKNSLYLQMNSLRAEDTALYYCARDKIYYGSGSYDFYYYYGIDVWGQGTTVTVSS VL: SSELTQDPAVSVALGQTVRITCQGDSLRSYYASWYQQKPGQAPVVVIYGKNNRPSGIPDRFSGSSSGNTVSLTITGAQAEDEADYYCQSRDNIGNHRVVLFGGGTKLTVL , please.
> 500 nM

Query F20-VH-GL1/B03-VL-GL1c (antibody, human IgG4, V domains shown) VH: EVQLVESGGGLVQPGRSLRLSCAASGFTFNDYPMHWVRQAPGKGLEWVSGISSNSGSVGYADSVKGRFTISRDNAKNSLYLQMNSLRAEDTALYYCARDKIYYGSGSYDFYYYYGMDVWGQGTTVTVSS VL: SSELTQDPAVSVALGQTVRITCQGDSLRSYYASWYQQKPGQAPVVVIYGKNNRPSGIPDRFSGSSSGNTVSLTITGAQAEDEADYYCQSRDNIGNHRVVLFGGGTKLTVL next
38.8 nM

Query F20-VH-GL1-V1-V9-V14/B08-VL-GL6c (antibody, human IgG4 S228P, V domains shown) VH: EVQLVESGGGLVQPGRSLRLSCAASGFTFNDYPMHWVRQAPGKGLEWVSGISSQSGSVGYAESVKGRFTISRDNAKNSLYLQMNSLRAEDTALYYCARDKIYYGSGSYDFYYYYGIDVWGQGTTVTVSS VL: QSALTQPASVSGSPGQSITISCTGTSNDVGAYNRVSWYQQHPGKAPKLMIYGVSNRPSGVSNRFSGSKSGNTASLTISGLQAEDEADFYCTSYSSSTTSYVVFGGGTKVTVL next
11.1 nM
